src = patent US11236086B2

Target: human ALK2 R206H (Homo sapiens, UniProt Q04771, R206H)
Assay: Cell-based ALK2-R206H cell activity assay (Smad1-Ser463/Ser465 phosphorylation by AlphaLISA in HEK293-ALK2-R206H cells)
Settings: phospho-Smad1 AlphaLISA, read-out: Cell Line (Cell Assay, IC50 class)
assay.readout: IC50

IN: Using the record for Cc1nc(-c2cc3c(N4CCN(C(=O)O[C@H]5C[C@H](F)C5)CC4)ccnc3[nH]2)cn1C , report its IC50.
OUT: ≤ 100 nM

IN: Using the record for CC(C)(C)c1csc(-c2cc3c(N4CCN(C(=O)OC5COC5)CC4)ccnc3[nH]2)n1 , report its IC50.
OUT: ≤ 100 nM

IN: Using the record for Cn1cnc(-c2[nH]c3nccc(N4CCN(C(=O)OCC(F)F)CC4)c3c2C#N)c1 , report its IC50.
OUT: ≤ 100 nM

IN: Using the record for Cn1cc(-c2cc3c(N4CCN(C(=O)C5CCOCC5)CC4)ccnc3[nH]2)cn1 , report its IC50.
OUT: > 500 nM

IN: Using the record for O=C(C1CC1)N1CCN(c2ccnc3[nH]c(-c4cnn(C5COC5)c4)cc23)CC1 , report its IC50.
OUT: 100 to 500 nM

---

Quick list: IC50 per entry.
Target: ALK2R206H (mutant ALK2, N-terminally tagged with GST) (Homo sapiens, UniProt Q04771, R206H)
Sequence (Q04771 21-509 R206H): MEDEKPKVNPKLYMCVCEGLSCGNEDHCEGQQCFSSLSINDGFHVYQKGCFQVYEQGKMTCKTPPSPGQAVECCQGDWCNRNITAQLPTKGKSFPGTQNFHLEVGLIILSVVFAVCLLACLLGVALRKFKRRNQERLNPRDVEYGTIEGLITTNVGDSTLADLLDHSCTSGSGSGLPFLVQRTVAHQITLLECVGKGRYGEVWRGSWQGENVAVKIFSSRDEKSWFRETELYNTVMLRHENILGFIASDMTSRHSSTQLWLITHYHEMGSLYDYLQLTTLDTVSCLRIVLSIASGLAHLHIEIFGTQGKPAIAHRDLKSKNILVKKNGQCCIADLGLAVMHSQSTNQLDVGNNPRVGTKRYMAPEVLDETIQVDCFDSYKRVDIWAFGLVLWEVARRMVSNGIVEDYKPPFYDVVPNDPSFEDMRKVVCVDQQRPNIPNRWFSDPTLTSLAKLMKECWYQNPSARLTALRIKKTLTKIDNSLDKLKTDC
Experiment: ALK binding assay (LANTHASCREEN TR-FRET competitive binding, displacement of Kinase Tracer 178)
Settings: read-out: Binding Assay (IC50 class)

# molecule, IC50
data = [
    ("Cn1cc(-c2[nH]c3nccc(N4CCN(C(=O)OC5COC5)CC4)c3c2F)cn1 [Compound 178]", "≤ 0.01 µM"),
    ("O=C(OC1COC1)N1CCN(c2ccnc3[nH]c(-c4cn(C5CCOCC5)cn4)cc23)CC1 [Compound 403]", "≤ 0.01 µM"),
    ("N#Cc1cccc(-c2cc3c(N4CCN(C(=O)C5CC5)CC4)ccnc3[nH]2)c1 [Compound 44]", "0.01 to 0.05 µM"),
    ("CCOC(=O)N1CCN(c2ccnc3[nH]c(-c4cccc(OC)n4)cc23)CC1 [Compound 85]", "≤ 0.01 µM"),
]

IN: Using the record for Cc1nc(-c2[nH]c3nccc(N4CCN(C(=O)OC5CC(F)(F)C5)CC4)c3c2C#N)cn1C [Compound 412] , report its IC50.
OUT: ≤ 0.01 µM

IN: Using the record for O=C(OC1COC1)N1CCN(c2ccnc3[nH]c(-c4cn(C(F)F)cn4)cc23)CC1 [Compound 280] , report its IC50.
OUT: ≤ 0.01 µM

---

Target: human ALK2 R206H (Homo sapiens, UniProt Q04771, R206H)
Assay: Cell-based ALK2-R206H cell activity assay (Smad1-Ser463/Ser465 phosphorylation by AlphaLISA in HEK293-ALK2-R206H cells)
Settings: phospho-Smad1 AlphaLISA, read-out: Cell Line (Cell Assay, IC50 class)
pIC50: −log10 of the molar value.
Quick list: pIC50 per entry.

Recorded results for 5 compounds are shown here.
# compound, measured.on, assay.result
rows = [
    ("CCn1cc(-c2cc3c(N4CCN(C(=O)C5CC5)CC4)ccnc3[nH]2)cn1", "human ALK2 R206H (Homo sapiens, UniProt Q04771, R206H)", "6.30 to 7.00"),
    ("Cn1cc(-c2cc3c(N4CCN(C(=O)OC5COC5)CC4)ccnc3[nH]2)c(Cl)n1", "human ALK2 R206H (Homo sapiens, UniProt Q04771, R206H)", "≥ 7.00"),
    ("COC(=O)COc1ccc(-c2cc3c(N4CCN(C(=O)C5CC5)CC4)ccnc3[nH]2)cc1", "human ALK2 R206H (Homo sapiens, UniProt Q04771, R206H)", "< 6.30"),
    ("Cn1cc(-c2[nH]c3nccc(N4CCN(C(=O)OC5CS(=O)(=O)C5)CC4)c3c2C#N)cn1", "human ALK2 R206H (Homo sapiens, UniProt Q04771, R206H)", "≥ 7.00"),
    ("Cc1nc(-c2[nH]c3nccc(N4CCN(C(=O)O[C@H]5C[C@H](F)C5)CC4)c3c2C#N)cn1C", "human ALK2 R206H (Homo sapiens, UniProt Q04771, R206H)", "≥ 7.00"),
]

IN: Using the record for Cn1cc(-c2cc3c(N4CCN(C(=O)OC5COC5)CC4)ccnc3[nH]2)c(F)n1 , report its pIC50.
OUT: 6.30 to 7.00

IN: Using the record for O=C(OC1COC1)N1CCN(c2ccnc3[nH]c(-c4cccnc4)cc23)CC1 , report its pIC50.
OUT: 6.30 to 7.00

IN: Using the record for N#Cc1cc(-c2cc3c(N4CCN(C(=O)OC5COC5)CC4)ccnc3[nH]2)cs1 , report its pIC50.
OUT: 6.30 to 7.00

---

Target: human ALK2 R206H (Homo sapiens, UniProt Q04771, R206H)
Test: Cell-based ALK2-R206H cell activity assay (Smad1-Ser463/Ser465 phosphorylation by AlphaLISA in HEK293-ALK2-R206H cells)
Conditions: phospho-Smad1 AlphaLISA, read-out: Cell Line (Cell Assay, IC50 class)
assay.readout: IC50

# compound, IC50
data = [
    ("O=C(C1CC1)N1CCN(c2ccnc3[nH]c(-c4ccc(C5CCNCC5F)cc4)cc23)CC1 (centres unmarked) [Compound 389]", "≤ 0.1 µM"),
]

IN: Find the measured IC50: item CC(C)c1cnc(-c2cc3c(N4CCN(C(=O)OC5COC5)CC4)ccnc3[nH]2)s1 [Compound 316] , target or system human ALK2 R206H (Homo sapiens, UniProt Q04771, R206H).
OUT: ≤ 0.1 µM

IN: Find the measured IC50: item CCOC(=O)N1CCN(c2ccnc3[nH]c(-c4cnn(C(F)F)c4)cc23)CC1 [Compound 125] , target or system human ALK2 R206H (Homo sapiens, UniProt Q04771, R206H).
OUT: ≤ 0.1 µM

IN: Find the measured IC50: item Cn1cc(-c2cc3c(N4CCN(C(=O)O[C@H]5C[C@@H](F)C5)CC4)ccnc3[nH]2)cn1 [Compound 161] , target or system human ALK2 R206H (Homo sapiens, UniProt Q04771, R206H).
OUT: ≤ 0.1 µM

IN: Find the measured IC50: item O=C(OC1COC1)N1CCN(c2ccnc3[nH]c(-c4cn([C@@H]5CCOC5)cn4)cc23)CC1 [Compound 358] , target or system human ALK2 R206H (Homo sapiens, UniProt Q04771, R206H).
OUT: 0.1 to 0.5 µM

IN: Find the measured IC50: item Cc1nn(C)cc1-c1cc2c(N3CCN(C(=O)OC4COC4)CC3)ccnc2[nH]1 [Compound 151] , target or system human ALK2 R206H (Homo sapiens, UniProt Q04771, R206H).
OUT: 0.1 to 0.5 µM

IN: Find the measured IC50: item Cc1cnc(-c2cc3c(N4CCN(C(=O)C5CC5)CC4)ccnc3[nH]2)s1 [Compound 34] , target or system human ALK2 R206H (Homo sapiens, UniProt Q04771, R206H).
OUT: 0.1 to 0.5 µM

IN: Find the measured IC50: item O=C(OC1COC1)N1CCN(c2ccnc3[nH]c(-c4ccc(C5(O)CCOCC5)cn4)cc23)CC1 [Compound 446] , target or system human ALK2 R206H (Homo sapiens, UniProt Q04771, R206H).
OUT: ≤ 0.1 µM

---

Quick list: pIC50 per entry.
Target: human ALK2 R206H (Homo sapiens, UniProt Q04771, R206H)
Assay: Cell-based ALK2-R206H cell activity assay (Smad1-Ser463/Ser465 phosphorylation by AlphaLISA in HEK293-ALK2-R206H cells)
Conditions: phospho-Smad1 AlphaLISA, read-out: Cell Line (Cell Assay, IC50 class)
pIC50: −log10 of the molar value.

# molecule, assay.readout, assay.result
records = [
    ("Cn1cnc(-c2cc3c(N4CCN(C(=O)OC5CC5)CC4)ccnc3[nH]2)c1 [Compound 29]", "pIC50", "≥ 7.00"),
    ("O=C(OC1COC1)N1CCN(c2ccnc3[nH]c(-c4ccc(C5(O)CCOCC5)cc4)cc23)CC1 [Compound 445]", "pIC50", "≥ 7.00"),
    ("Cn1cc(-c2[nH]c3nccc(N4CCN(C(=O)O[C@H]5C[C@H](F)C5)CC4)c3c2C#N)cn1 [Compound 295]", "pIC50", "≥ 7.00"),
]

IN: Using the record for Cn1cc(-c2[nH]c3nccc(N4CCN(C(=O)O[C@H]5C[C@H](F)C5)CC4)c3c2F)cn1 [Compound 267] , report its pIC50.
OUT: ≥ 7.00

IN: Using the record for CCOC(=O)N1CCN(c2ccnc3[nH]c(-c4ccc([C@]5(O)CCOC5)cc4)cc23)CC1 [Compound 354] , report its pIC50.
OUT: ≥ 7.00

IN: Using the record for CCC(=O)N1CCN(c2ccnc3[nH]c(-c4cnn(C)c4)cc23)CC1 [Compound 2] , report its pIC50.
OUT: < 6.30

IN: Using the record for CC(C)(O)c1nc(-c2cc3c(N4CCN(C(=O)OC5COC5)CC4)ccnc3[nH]2)cs1 [Compound 378] , report its pIC50.
OUT: 6.30 to 7.00

IN: Using the record for Cc1nc(-c2cc3c(N4CCN(C(=O)O[C@H]5CC(F)(F)C5(F)F)CC4)ccnc3[nH]2)cn1C [Compound 432] , report its pIC50.
OUT: ≥ 7.00
